The origin of these recorded values is ChEMBL document CHEMBL4028802.

# Species: Homo sapiens
# EXPERIMENT_SUMMARY: Liver toxicity in human assessed as induction of drug-induced liver injury by measuring severity class index
Class label 1: DILI_severity_class at least 3. Class label 0: DILI_severity_class below 3.

CC1=C(C(=O)O)N2C(=O)[C@@H](NC(=O)[C@H](N)c3ccccc3)[C@H]2SC1 [CEPHALEXIN ANHYDROUS]: label 1
C[N+]1(CC2CC2)CC[C@]23c4c5ccc(O)c4O[C@H]2C(=O)CC[C@@]3(O)[C@H]1C5.[Br-] (stereo partly specified) [METHYLNALTREXONE BROMIDE]: label 0
CNC(=O)c1cnn(-c2nc(N)c3ncn([C@@H]4O[C@H](CO)[C@@H](O)[C@H]4O)c3n2)c1 [REGADENOSON ANHYDROUS]: label 0
CC(C)NNC(=O)c1ccncc1: label 1
NCCc1c[nH]cn1.O=P(O)(O)O.O=P(O)(O)O [HISTAMINE PHOSPHATE]: label 0

Exam item: Decide: is the reported value of DILI_severity_class for CO[C@H]1/C=C/O[C@@]2(C)Oc3c(C)c(O)c4c(c3C2=O)C2=NC3(CCN(CC(C)C)CC3)NC2=C(NC(=O)/C(C)=C\C=C\[C@H](C)[C@H](O)[C@@H](C)[C@@H](O)[C@@H](C)[C@H](OC(C)=O)[C@@H]1C)C4=O equal to or greater than 3?
Marked response: label 1

Exam item: Decide: is the reported value of DILI_severity_class for COc1cc(NC(C)CCCN)c2ncccc2c1 (stereo unspecified) equal to or greater than 3?
Marked response: label 0

Exam item: Decide: is the reported value of DILI_severity_class for NS(=O)(=O)c1cc2c(cc1Cl)NCNS2(=O)=O [HYDROCHLOROTHIAZIDE] equal to or greater than 3?
Marked response: label 0

* * *

# Organism: Homo sapiens
# EXPERIMENT_SUMMARY: Liver toxicity in human assessed as induction of drug-induced liver injury by measuring verified drug-induced liver injury concern status
RECORDED_METRIC: DILI_Concern

CN(C)c1ccc(O)c2c1C[C@H]1C[C@H]3[C@H](N(C)C)C(O)=C(C(N)=O)C(=O)[C@@]3(O)C(O)=C1C2=O: Most-Dili-Concern
COc1cc2nc(N3CCN(C(=O)C4COc5ccccc5O4)CC3)nc(N)c2cc1OC (configuration not stated): Ambiguous-Dili-Concern
Nc1nnc(-c2cccc(Cl)c2Cl)c(N)n1: Most-Dili-Concern
CCO[C@@H]1OC(=O)C[C@@H]1NC(=O)[C@@H]1CCCN2C(=O)CC[C@H](NC(=O)c3nccc4ccccc34)C(=O)N12: Most-Dili-Concern

DILI_Concern measured on COc1cc2c(cc1OC)C1CC(=O)C(CC(C)C)CN1CC2 (configuration not stated) = Ambiguous-Dili-Concern

DILI_Concern measured on CCCCC[C@H](O)/C=C/[C@@H]1[C@H]2C/C(=C/CCCC(=O)O)O[C@H]2C[C@H]1O = Ambiguous-Dili-Concern

* * *

# Organism: Homo sapiens
# EXPERIMENT_SUMMARY: Liver toxicity in human assessed as induction of drug-induced liver injury by measuring severity class index
RECORDED_METRIC: DILI_severity_class
Number only, please.

Sample records with DILI_severity_class:
C[C@](N)(Cc1ccc(O)c(O)c1)C(=O)O: 8
Cn1c(CCCC(=O)O)nc2cc(N(CCCl)CCCl)ccc21: 0
COc1cc([C@@H]2c3cc4c(cc3[C@@H](O[C@@H]3O[C@@H]5CO[C@@H](c6cccs6)O[C@H]5[C@H](O)[C@H]3O)[C@H]3COC(=O)[C@H]23)OCO4)cc(OC)c1O [TENIPOSIDE]: 3
CCN(CCO)CCCC(C)Nc1ccnc2cc(Cl)ccc12 (stereo unspecified) [HYDROXYCHLOROQUINE]: 7
Clc1ccc(C(c2ccccc2Cl)C(Cl)Cl)cc1 (stereo unspecified): 0

DILI_severity_class measured on COc1ccc2cc(CCC(C)=O)ccc2c1 = 3

DILI_severity_class measured on CN1C(=O)CC(C)(c2ccccc2)C1=O (stereo unspecified) [METHSUXIMIDE] = 0

DILI_severity_class measured on NC(=O)CC[C@@H]1NC(=O)[C@H](Cc2ccccc2)NC(=O)[C@H](Cc2ccc(O)cc2)NC(=O)[C@@H](N)CSSC[C@@H](C(=O)N2CCC[C@H]2C(=O)N[C@@H](CCCN=C(N)N)C(=O)NCC(N)=O)NC(=O)[C@H](CC(N)=O)NC1=O = 0

DILI_severity_class measured on CC(COc1ccccc1)NN (stereo unspecified) = 8

DILI_severity_class measured on Cn1c(=O)c2[nH]cnc2n(C)c1=O.Cn1c(=O)c2[nH]cnc2n(C)c1=O.NCCN = 0

DILI_severity_class measured on CC(C)C[C@H](NC(=O)[C@H](Cc1ccccc1)NC(=O)c1cnccn1)B(O)O = 7

DILI_severity_class measured on CC(COc1ccccc1)NC(C)C(O)c1ccc(O)cc1 (stereo unspecified) = 0

DILI_severity_class measured on CCC[C@@]1(CCc2ccccc2)CC(O)=C([C@H](CC)c2cccc(NS(=O)(=O)c3ccc(C(F)(F)F)cn3)c2)C(=O)O1 = 8

DILI_severity_class measured on COc1cc2c(cc1OC)[C@@H](Cc1cc(OC)c(OC)c(OC)c1)[N+](C)(CCCOC(=O)CC/C=C/CCC(=O)OCCC[N+]1(C)CCc3cc(OC)c(OC)cc3[C@H]1Cc1cc(OC)c(OC)c(OC)c1)CC2 (stereo partly specified) = 0

DILI_severity_class measured on CC(=O)NCCCS(=O)(=O)O [ACAMPROSATE] = 3

DILI_severity_class measured on C=C1CC[C@H](O)C/C1=C/C=C1\CCC[C@]2(C)[C@@H]([C@H](C)/C=C/[C@H](C)C(C)C)CC[C@@H]12 = 0

* * *

# Organism: Homo sapiens
# EXPERIMENT_SUMMARY: Liver toxicity in human assessed as induction of drug-induced liver injury by measuring severity class index
RECORDED_METRIC: DILI_severity_class
Number only, please.

Sample records with DILI_severity_class:
CC(C)C(=O)Oc1ccc(CO)cc1[C@H](CCN(C(C)C)C(C)C)c1ccccc1 [FESOTERODINE]: 0
C[C@@H](CN1CC(=O)NC(=O)C1)N1CC(=O)NC(=O)C1 [DEXRAZOXANE]: 4
Sc1ncnc2nc[nH]c12 [MERCAPTOPURINE ANHYDROUS]: 8
CNC[C@H](O)[C@@H](O)[C@H](O)[C@H](O)CO.CNC[C@H](O)[C@@H](O)[C@H](O)[C@H](O)CO.O=C(CCCCC(=O)Nc1c(I)cc(I)c(C(=O)O)c1I)Nc1c(I)cc(I)c(C(=O)O)c1I [IODIPAMIDE MEGLUMINE]: 0
CC(C)CC(N(C)C)C1(c2ccc(Cl)cc2)CCC1 (stereo unspecified) [SIBUTRAMINE]: 4

DILI_severity_class measured on CCCCC(=O)N(Cc1ccc(-c2ccccc2-c2nnn[nH]2)cc1)[C@H](C(=O)O)C(C)C = 3

DILI_severity_class measured on COc1cc2c(c(OC)c1OC)-c1ccc(OC)c(=O)cc1[C@@H](NC(C)=O)CC2 [COLCHICINE] = 6

DILI_severity_class measured on CC(C)(C)NC[C@H](O)COc1nsnc1N1CCOCC1 [TIMOLOL] = 5

DILI_severity_class measured on CN1C2CCCC1CC(NC(=O)c1nn(C)c3ccccc13)C2 (stereo unspecified) [GRANISETRON] = 3

DILI_severity_class measured on Cn1nnc2c(C(N)=O)ncn2c1=O [TEMOZOLOMIDE] = 4

DILI_severity_class measured on CC[C@@H](C(N)=O)N1CCCC1=O = 8

* * *

# Species on record: Homo sapiens
# EXPERIMENT_SUMMARY: Liver toxicity in human assessed as induction of drug-induced liver injury by measuring severity class index
RECORDED_METRIC: DILI_severity_class
Number only, please.

CN(C)CCOC(c1ccc(Cl)cc1)c1ccccn1 (stereo not given): 0

DILI_severity_class measured on Cc1[nH]c(=O)c(C#N)cc1-c1ccncc1 = 3

DILI_severity_class measured on O=C(O)COCCN1CCN(C(c2ccccc2)c2ccc(Cl)cc2)CC1 (stereo not given) = 3

DILI_severity_class measured on NNc1nncc2ccccc12 [HYDRALAZINE] = 3

DILI_severity_class measured on CCN(C)C(=O)Oc1cccc([C@H](C)N(C)C)c1 = 3

* * *

# Organism: Homo sapiens
# EXPERIMENT_SUMMARY: Liver toxicity in human assessed as induction of drug-induced liver injury by measuring verified drug-induced liver injury concern status
RECORDED_METRIC: DILI_Concern

CC(=O)N[C@@H]1[C@@H](O[C@@H]2O[C@@H](C(=O)O)[C@@H](O)[C@H](O)[C@H]2O)[C@@H](OS(=O)(=O)O)[C@@H](CO)O[C@H]1O: Most-Dili-Concern
CC[C@@H]([C@H](C)O)n1ncn(-c2ccc(N3CCN(c4ccc(OC[C@@H]5CO[C@@](Cn6cncn6)(c6ccc(F)cc6F)C5)cc4)CC3)cc2)c1=O [POSACONAZOLE]: Ambiguous-Dili-Concern
NCCCC[C@H](N[C@@H](CCc1ccccc1)C(=O)O)C(=O)N1CCC[C@H]1C(=O)O [LISINOPRIL ANHYDROUS]: Less-Dili-Concern
O=C1CN(/N=C/c2ccc(-c3ccc([N+](=O)[O-])cc3)o2)C(O)=N1 [DANTROLENE]: Most-Dili-Concern

DILI_Concern measured on NCCc1ccc(O)cc1 [TYRAMINE] = No-Dili-Concern

DILI_Concern measured on C#C[C@@]1(OC(C)=O)CC[C@H]2[C@@H]3CCC4=CC(=O)CC[C@@H]4[C@H]3CC[C@@]21C = No-Dili-Concern

DILI_Concern measured on CN1Cc2c(N)cccc2C(c2ccccc2)C1 (configuration not stated) [NOMIFENSINE] = Most-Dili-Concern

DILI_Concern measured on NNC(=O)c1ccncc1 [ISONIAZID] = Most-Dili-Concern

DILI_Concern measured on OC(CNCC(O)C1CCc2cc(F)ccc2O1)C1CCc2cc(F)ccc2O1 (configuration not stated) [NEBIVOLOL] = Ambiguous-Dili-Concern

DILI_Concern measured on CC(C)[C@H](N)C(=O)OCCOCn1cnc2c(=O)[nH]c(N)nc21 [VALACYCLOVIR] = Less-Dili-Concern

DILI_Concern measured on C[N+](C)(C)C[C@H](O)CC(=O)[O-] [LEVOCARNITINE] = No-Dili-Concern

DILI_Concern measured on CC(C)NCC(O)c1ccc(O)c(O)c1 (configuration not stated) [ISOPROTERENOL] = No-Dili-Concern
